Would you mind telling me the reported pIC50 of each entry?
Target: Kappa-type opioid receptor (Rattus norvegicus)
Sequence (P34975 whole entry): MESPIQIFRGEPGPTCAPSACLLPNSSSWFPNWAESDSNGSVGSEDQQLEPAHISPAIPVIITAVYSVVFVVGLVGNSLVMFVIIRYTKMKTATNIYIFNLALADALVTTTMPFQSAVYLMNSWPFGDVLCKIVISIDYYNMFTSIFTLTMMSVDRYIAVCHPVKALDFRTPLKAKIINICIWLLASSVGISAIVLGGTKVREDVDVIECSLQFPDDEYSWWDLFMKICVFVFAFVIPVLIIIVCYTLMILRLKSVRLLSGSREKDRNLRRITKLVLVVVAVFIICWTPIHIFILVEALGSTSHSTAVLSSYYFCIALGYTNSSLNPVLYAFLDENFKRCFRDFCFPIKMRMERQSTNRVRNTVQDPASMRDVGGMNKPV
Assay: biochemical
Format: cell-based, CHO
pIC50: −log10 of the molar value. Starred links: 1 amine or outer side, 2 acyl side, 3 side chain; linkers in the order of their positions; H or OH if unused. Non-standard residues stand in square brackets, D forms with d. Residues, ends and D or L forms follow the SMILES beside them. X1 = O=C([C@@]1(N[*:1])CCCC[C@@H]1O)[*:2]; X2 = O=C([C@@]1(N[*:1])CCCC[C@H]1O)[*:2]; X3 = O=C([C@@]1(N[*:1])CCC[C@@H]1O)[*:2]; X4 = O=C([C@]1(N[*:1])CCC[C@H]1O)[*:2]

Ask: Please look up its pIC50: CC(C)C[C@H](NC(=O)[C@H](Cc1ccccc1)NC(=O)CNC(=O)[C@@]1(NC(=O)[C@@H](N)Cc2ccc(O)cc2)CCCC[C@@H]1O)C(=O)O (H-Y[X1]GFL-OH)
Result: 5.20

Ask: Check CC(C)C[C@H](NC(=O)[C@H](Cc1ccccc1)NC(=O)CNC(=O)[C@@]1(NC(=O)[C@@H](N)Cc2ccc(O)cc2)CCC[C@@H]1O)C(=O)O (H-Y[X3]GFL-OH) too.
Result: < 5.00

Ask: Check CC(C)C[C@H](NC(=O)[C@H](Cc1ccccc1)NC(=O)CNC(=O)[C@]1(NC(=O)[C@@H](N)Cc2ccc(O)cc2)CCC[C@H]1O)C(=O)O (H-Y[X4]GFL-OH) too.
Result: < 5.00

Ask: Check CC(C)C[C@H](NC(=O)[C@H](Cc1ccccc1)NC(=O)CNC(=O)C(C)(C)NC(=O)[C@@H](N)Cc1ccc(O)cc1)C(=O)O (single isomer, unassigned) too.
Result: < 5.00

Ask: Check CC(C)C[C@H](NC(=O)[C@H](Cc1ccccc1)NC(=O)CNC(=O)[C@@]1(NC(=O)[C@@H](N)Cc2ccc(O)cc2)CCCC[C@H]1O)C(=O)O (H-Y[X2]GFL-OH) too.
Result: < 5.00

---

Molecular target: Mu-type opioid receptor (Rattus norvegicus, UniProt P33535)
Sequence (P33535 whole entry): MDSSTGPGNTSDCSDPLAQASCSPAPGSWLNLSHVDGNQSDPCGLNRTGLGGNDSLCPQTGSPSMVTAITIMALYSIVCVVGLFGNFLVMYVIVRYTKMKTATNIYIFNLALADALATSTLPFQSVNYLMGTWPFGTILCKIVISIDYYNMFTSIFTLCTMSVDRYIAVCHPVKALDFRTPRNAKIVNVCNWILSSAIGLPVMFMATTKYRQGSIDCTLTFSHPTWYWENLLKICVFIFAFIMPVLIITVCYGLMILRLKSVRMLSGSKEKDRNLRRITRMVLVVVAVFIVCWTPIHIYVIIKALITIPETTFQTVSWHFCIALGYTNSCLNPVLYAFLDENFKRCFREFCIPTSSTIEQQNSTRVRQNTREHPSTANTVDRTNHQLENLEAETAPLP
Assay: biochemical
Format: cell-based, CHO
Starred links: 1 amine or outer side, 2 acyl side, 3 side chain; linkers in the order of their positions; H or OH if unused. Non-standard residues stand in square brackets, D forms with d. Residues, ends and D or L forms follow the SMILES beside them. X1 = O=C([C@@]1(N[*:1])CCCC[C@@H]1O)[*:2]; X2 = O=C([C@@]1(N[*:1])CCCC[C@H]1O)[*:2]; X3 = O=C([C@@]1(N[*:1])CCC[C@@H]1O)[*:2]; X4 = O=C([C@]1(N[*:1])CCC[C@H]1O)[*:2]
Cut-off 0.2 µM on IC50: below means rule met, at or above means rule not met.

Ask: Regarding CC(C)C[C@H](NC(=O)[C@H](Cc1ccccc1)NC(=O)CNC(=O)[C@@]1(NC(=O)[C@@H](N)Cc2ccc(O)cc2)CCCC[C@@H]1O)C(=O)O (H-Y[X1]GFL-OH) , kindly confirm whether its IC50 is beneath 0.2 µM.
Result: rule met

Ask: Check CC(C)C[C@H](NC(=O)[C@H](Cc1ccccc1)NC(=O)CNC(=O)[C@]1(NC(=O)[C@@H](N)Cc2ccc(O)cc2)CCC[C@H]1O)C(=O)O (H-Y[X4]GFL-OH) too.
Result: rule not met

Ask: Check CC(C)C[C@H](NC(=O)[C@H](Cc1ccccc1)NC(=O)CNC(=O)C(C)(C)NC(=O)[C@@H](N)Cc1ccc(O)cc1)C(=O)O (single isomer, unassigned) too.
Result: rule met

Ask: Check CC(C)C[C@H](NC(=O)[C@H](Cc1ccccc1)NC(=O)CNC(=O)[C@@]1(NC(=O)[C@@H](N)Cc2ccc(O)cc2)CCCC[C@H]1O)C(=O)O (H-Y[X2]GFL-OH) too.
Result: rule met

Ask: Check CC(C)C[C@H](NC(=O)[C@H](Cc1ccccc1)NC(=O)CNC(=O)[C@@]1(NC(=O)[C@@H](N)Cc2ccc(O)cc2)CCC[C@@H]1O)C(=O)O (H-Y[X3]GFL-OH) too.
Result: rule met

---

Target: Kappa-type opioid receptor (Rattus norvegicus)
Test: biochemical
Assay type: cell-based, CHO
Settings: cho
pIC50: −log10 of the molar value.
Measured Quantity: pIC50

Ask: Please look up its pIC50: CC(C)C[C@@H](NC(=O)[C@@H](Cc1ccccc1)NC(=O)CNC(=O)[C@@](C)(CO)NC(=O)[C@H](N)Cc1ccc(O)cc1)C(=O)O
Result: < 5.00

Ask: Check CC(C)C[C@@H](NC(=O)[C@@H](Cc1ccccc1)NC(=O)CNC(=O)[C@](C)(CO)NC(=O)[C@H](N)Cc1ccc(O)cc1)C(=O)O too.
Result: < 5.00
